TARGET_ENTITY: Epidermal growth factor receptor (Homo sapiens, UniProt P00533)
Sequence (P00533 whole entry, the tested form may be a part): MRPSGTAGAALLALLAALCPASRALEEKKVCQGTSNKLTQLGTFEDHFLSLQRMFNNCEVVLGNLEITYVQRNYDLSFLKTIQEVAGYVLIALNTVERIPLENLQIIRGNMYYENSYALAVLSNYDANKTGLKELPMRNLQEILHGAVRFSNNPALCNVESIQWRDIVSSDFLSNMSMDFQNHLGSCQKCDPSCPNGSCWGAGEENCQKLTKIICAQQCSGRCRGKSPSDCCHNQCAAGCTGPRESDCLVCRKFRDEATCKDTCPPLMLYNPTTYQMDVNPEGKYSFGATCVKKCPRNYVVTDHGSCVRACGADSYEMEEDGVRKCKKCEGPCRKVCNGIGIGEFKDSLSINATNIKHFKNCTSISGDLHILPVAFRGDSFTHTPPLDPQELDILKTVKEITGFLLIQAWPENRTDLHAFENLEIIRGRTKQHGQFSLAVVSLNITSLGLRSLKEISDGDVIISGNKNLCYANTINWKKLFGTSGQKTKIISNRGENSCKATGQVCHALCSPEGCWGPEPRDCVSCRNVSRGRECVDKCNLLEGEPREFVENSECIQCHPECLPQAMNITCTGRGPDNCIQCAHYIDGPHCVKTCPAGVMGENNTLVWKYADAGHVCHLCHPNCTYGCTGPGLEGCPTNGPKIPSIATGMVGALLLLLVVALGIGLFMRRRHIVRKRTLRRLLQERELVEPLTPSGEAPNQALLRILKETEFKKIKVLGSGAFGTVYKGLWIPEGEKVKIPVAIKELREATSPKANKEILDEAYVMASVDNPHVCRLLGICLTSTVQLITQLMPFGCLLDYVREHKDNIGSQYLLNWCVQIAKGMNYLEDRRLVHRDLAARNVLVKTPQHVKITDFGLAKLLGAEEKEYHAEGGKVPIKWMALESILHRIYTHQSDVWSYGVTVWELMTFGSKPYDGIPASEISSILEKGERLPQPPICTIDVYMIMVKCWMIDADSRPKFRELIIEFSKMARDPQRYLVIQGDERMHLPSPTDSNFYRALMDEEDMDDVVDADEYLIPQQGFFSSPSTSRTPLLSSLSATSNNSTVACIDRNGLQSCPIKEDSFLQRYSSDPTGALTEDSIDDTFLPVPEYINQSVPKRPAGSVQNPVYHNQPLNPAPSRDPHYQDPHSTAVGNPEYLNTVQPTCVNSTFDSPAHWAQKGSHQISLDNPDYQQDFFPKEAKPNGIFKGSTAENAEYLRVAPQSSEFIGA
ASSAY: Inhibition of recombinant human GST-tagged EGFR cytoplasmic domain (668 to 1210 residues) expressed in baculovirus expression system using FAM-labelled peptide as substrate pretreated for 10 mins followed by substrate addition measured after 1 hr by mobility shift assay
Note to self: use YES only for IC50 readings below 20 nM; a reading exactly at 20 nM still gets NO.

C=CC(=O)Nc1cc(Nc2ncc3ncn(-c4ccc(C(C)C)cc4)c3n2)c(OC)cc1N(C)CCN(C)C :: NO
C=CC(=O)Nc1cc(Nc2ncc3nc(Nc4ccccc4)n(C(C)C)c3n2)c(OC)cc1N(C)CCN(C)C :: NO
C=CC(=O)Nc1cc(Nc2ncc3ncn(-c4ccc(F)cc4)c3n2)c(OC)cc1N(C)CCN(C)C :: YES
C=CC(=O)Nc1cc(Nc2ncc3ncn(-c4ccc(I)cc4)c3n2)c(OC)cc1N(C)CCN(C)C :: YES
C=CC(=O)Nc1cc(Nc2ncc3ncn(-c4ccc(Cl)cc4)c3n2)c(OC)cc1N(C)CCN(C)C :: YES
C=CC(=O)Nc1cc(Nc2ncc3nc(Nc4ccccc4)n(C)c3n2)c(OC)cc1N(C)CCN(C)C :: NO
C=CC(=O)Nc1cc(Nc2ncc3ncn(-c4ccc(F)c(Br)c4)c3n2)c(OC)cc1N(C)CCN(C)C :: YES

* * *

molecules and their reported Ratio IC50
Organism: Homo sapiens
ASSAY: Selectivity ratio of IC50 for human A549 cells expressing wild-type EGFR/K-Ras mutant to IC50 for human NCI-H1975 cells expressing EGFR L858R/T790M double mutant
ENDPOINT: Ratio IC50

C=CC(=O)Nc1cc(Nc2ncc3ncn(-c4ccccc4Br)c3n2)c(OC)cc1N(C)CCN(C)C :: 1
C=CC(=O)Nc1cc(Nc2ncc3ncn(-c4ccc(CC)cc4)c3n2)c(OC)cc1N(C)CCN(C)C :: 16
C=CC(=O)Nc1cc(Nc2ncc3ncn(-c4ccc(I)cc4)c3n2)c(OC)cc1N(C)CCN(C)C :: 115
C=CC(=O)Nc1cc(Nc2ncc3ncn(-c4ccc(Br)cc4)c3n2)c(OC)cc1N(C)CCN(C)C :: 8
C=CC(=O)Nc1cc(Nc2ncc3ncn(-c4ccc(Cl)cc4Cl)c3n2)c(OC)cc1N(C)CCN(C)C :: 7

* * *

TARGET_ENTITY: Epidermal growth factor receptor (Homo sapiens, UniProt P00533, L858R/T790M)
Sequence (P00533 25-1210 T790M/L858R limits assumed): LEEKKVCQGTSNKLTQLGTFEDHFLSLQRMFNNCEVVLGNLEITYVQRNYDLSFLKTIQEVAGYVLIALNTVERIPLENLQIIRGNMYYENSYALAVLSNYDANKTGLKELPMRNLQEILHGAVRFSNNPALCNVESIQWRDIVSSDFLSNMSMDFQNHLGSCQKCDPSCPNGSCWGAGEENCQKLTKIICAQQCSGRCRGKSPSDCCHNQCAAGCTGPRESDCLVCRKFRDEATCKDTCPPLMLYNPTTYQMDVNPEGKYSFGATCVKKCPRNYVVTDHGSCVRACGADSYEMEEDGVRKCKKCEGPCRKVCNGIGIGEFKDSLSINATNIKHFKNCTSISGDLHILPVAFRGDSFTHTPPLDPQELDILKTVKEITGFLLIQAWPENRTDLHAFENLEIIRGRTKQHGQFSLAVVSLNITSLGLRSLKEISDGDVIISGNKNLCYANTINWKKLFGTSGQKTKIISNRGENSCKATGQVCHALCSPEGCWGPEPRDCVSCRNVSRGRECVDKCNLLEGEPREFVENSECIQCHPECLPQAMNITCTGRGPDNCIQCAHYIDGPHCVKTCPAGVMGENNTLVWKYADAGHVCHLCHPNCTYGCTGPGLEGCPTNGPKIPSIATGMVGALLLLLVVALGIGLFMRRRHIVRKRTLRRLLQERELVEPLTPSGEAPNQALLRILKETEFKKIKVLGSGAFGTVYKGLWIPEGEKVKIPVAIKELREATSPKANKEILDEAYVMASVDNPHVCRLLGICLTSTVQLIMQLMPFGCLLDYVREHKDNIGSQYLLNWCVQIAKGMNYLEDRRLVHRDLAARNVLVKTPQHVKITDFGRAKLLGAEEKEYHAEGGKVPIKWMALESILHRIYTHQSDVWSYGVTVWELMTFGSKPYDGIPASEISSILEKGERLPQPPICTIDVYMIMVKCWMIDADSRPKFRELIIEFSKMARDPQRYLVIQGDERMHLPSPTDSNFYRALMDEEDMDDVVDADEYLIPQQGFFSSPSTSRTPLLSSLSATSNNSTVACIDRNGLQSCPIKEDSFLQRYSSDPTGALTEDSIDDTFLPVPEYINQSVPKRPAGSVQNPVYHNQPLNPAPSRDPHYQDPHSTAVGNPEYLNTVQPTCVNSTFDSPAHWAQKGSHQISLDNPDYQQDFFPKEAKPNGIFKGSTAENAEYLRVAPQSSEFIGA
ASSAY: Inhibition of recombinant human GST-tagged EGFR L858R/T790M double mutant cytoplasmic domain (668 to 1210 residues) expressed in baculovirus expression system using FAM-labelled peptide as substrate pretreated for 10 mins followed by substrate addition measured after 1 hr by mobility shift assay
MEASUREMENT_CONTEXT: read-out: IC50
pIC50: −log10 of the molar value.
compounds and their reported pIC50
ENDPOINT: pIC50

C=CC(=O)Nc1cc(Nc2ncc3ncn(-c4ccc(C(C)C)cc4)c3n2)c(OC)cc1N(C)CCN(C)C :: 8.38
C=CC(=O)Nc1cc(Nc2ncc3nc(Nc4ccccc4)n(C(C)C)c3n2)c(OC)cc1N(C)CCN(C)C :: 8.29
C=CC(=O)Nc1cc(Nc2ncc3ncn(-c4ccc(F)cc4)c3n2)c(OC)cc1N(C)CCN(C)C :: 8.49
C=CC(=O)Nc1cc(Nc2ncc3nc(Nc4ccccc4)n(C)c3n2)c(OC)cc1N(C)CCN(C)C :: 8.57
